Data origin: PubChem BioAssay AID488890

So I've got a bunch of compounds here, and I need their inhibition values.
Experiment: growth inhibition of non-replicating M. tuberculosis (AID 488890);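 further: plate controls were DMSO cells for no effect and high antibiotic wells for full effect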
Settings: Mycobacterium tuberculosis non-replicating, at 25 µM, stronger effect = higher value
Screen size: about 320,000 compounds; about 1,300 (0.41%) were called active. Roughly 3% stayed inconclusive and do not appear here. The list is a sample of the results. Potency and affinity values are given separately.
Output spec: scalar in %, unitless text.

// query Using the record for `Cc1nc2ccc([N+](=O)[O-])cc2c(=O)n1Cc1ccc(Cl)cc1` , report its inhibition.
// result -5.97

// query And the next one, `CC(=O)Nc1ccc(Nc2ccc3nonc3c2[N+](=O)[O-])cc1` ?
// result 1.34

// query And the next one, NC(=O)CCC(NS(=O)(=O)c1ccc(Cl)cc1)C(=O)NCc1ccc(Cl)cc1 (stereo not drawn) ?
// result 0.33

// query And the next one, `Cc1ccc(-c2nc3ccc(Cl)cc3c(=O)n2O)cc1` ?
// result 69.6

// query And the next one, `Nn1c(-c2ccccc2)nc2cc(Cl)ccc2c1=O` ?
// result -0.74

// query And the next one, `O=C(Nn1c(-c2ccc(Br)cc2)nc2ccccc2c1=O)c1ccc([N+](=O)[O-])cc1` ?
// result 20.4

// query And the next one, `O=C(COc1c(Cl)cccc1Cl)NN1C(=O)CSC1=S` ?
// result 8.7

// query And the next one, `CCCn1nnnc1NCc1ccc(F)cc1` ?
// result 24.5

// query And the next one, `Cn1nnnc1Sc1ncnc2scc(-c3ccccc3)c12` ?
// result 48.6

// query And the next one, `COC(=O)c1ccc(C)c(NC(=O)Cc2ccc([N+](=O)[O-])cc2)c1` ?
// result 21.2

// query And the next one, `O=C(Nc1ccc(Cl)c(Cl)c1)Nc1nnc(-c2ccncc2)s1` ?
// result 68.9

// query And the next one, `CCOC(=O)N1CCC(NC(=O)C2CCN(C(=O)c3cc4oc(C)cc4n3Cc3c(F)cccc3Cl)CC2)CC1` ?
// result 5.49

// query And the next one, `COc1ccc(C(=O)/C=C\N2CCOCC2)cc1` ?
// result 10.4

// query And the next one, CC(=O)Nc1ccc(NC(=O)C(C)Oc2ccc(Cl)cc2Cl)cc1 (stereo not drawn) ?
// result 4.67

// query And the next one, `Nn1c(-c2ccccc2)nc2ccccc2c1=O` ?
// result -12.5

// query And the next one, `CN(C)CCC#CC1(O)c2ccccc2-c2ccccc21` ?
// result -5.2

// query And the next one, `Cc1nc2ccc([N+](=O)[O-])cc2c(=O)n1Cc1ccc(Br)cc1` ?
// result -9.44

// query And the next one, `COc1ccc(-n2nc(C(=O)NCC(=O)NCc3cccc(F)c3)c3ccccc3c2=O)cc1Cl` ?
// result -7.9

// query And the next one, `CC(=O)N1CCc2c(sc(NC(=O)C3CC3)c2-c2nc3ccccc3s2)C1` ?
// result 12.5

// query And the next one, OCCCc1nc2n(n1)C(c1cccs1)C=C(c1ccccc1)N2 (stereo not drawn) ?
// result 0.31

// query And the next one, CC1Cc2ccccc2N1C(=O)CO/N=C/c1ccccc1OC(F)F (stereo not drawn) ?
// result -12.1

// query And the next one, `CCOCC(=O)OCC(=O)NC12CC3CC(CC(C3)C1)C2` ?
// result -7.93

// query And the next one, `Clc1ccc(CSc2nnc(-c3cccnc3)o2)cc1` ?
// result 47.9

// query And the next one, CSc1ccc(C(=O)C2CCCN(C(=O)c3ccc4c(c3)OCO4)C2)cc1 (stereo not drawn) ?
// result 71.2

// query And the next one, `CCN(CC)C(=O)CSc1nnc(-c2ccco2)o1` ?
// result 18.1

// query And the next one, `Brc1ccc(CSc2nnc(-c3cccnc3)o2)cc1` ?
// result -15.4

// query And the next one, `O=C(Nc1ccc(Cl)cc1)Nc1nnc(-c2ccncc2)s1` ?
// result 16.2

// query And the next one, `Cc1nc(SCC(=O)N2CCOCC2)c2c(=O)n(C)c(=O)n(CC(C)C)c2n1` ?
// result -4.99

// query And the next one, `O=[N+]([O-])c1ccc(CSc2nnc(-c3cnccn3)o2)cc1` ?
// result 66.9

// query And the next one, `O=C1C=CC(=O)N1Cc1ccccc1` ?
// result 33.7

// query And the next one, CSc1ccc(C(=O)C2CCCN(C(=O)c3nonc3C)C2)cc1 (stereo not drawn) ?
// result 62.8

// query And the next one, `C/C(=N\NC(=O)C(c1ccccc1)c1ccccc1)c1ccccn1` ?
// result 78.2

// query And the next one, `COc1ccccc1NC(=O)Cn1cnc2sc(C(=O)Nc3cc(OC)c(OC)c(OC)c3)c(C)c2c1=O` ?
// result -13
